PROCEDURE SUMMARY: Mouse oral pharmacokinetics
Assay type: in vivo
CONDITION SUMMARY: Table 13; mice, single 50 mg/kg oral gavage; vehicle Tween 80 (7%), EtOH (3%), DMSO (5%) in 0.9% NaCl; ± SEM of 3 mice; 50 mg/kg; read-out: Cmax

- MOLECULE: "O=C(Nc1ccc2sc(-c3ccc(F)c(F)c3)nc2c1)N1CC[C@H](F)C1 [Compound 1]"
  QUANTITY UNIT: "µM"
  Cmax: 23.3

---

PROCEDURE SUMMARY: Rat pharmacokinetics, intravenous administration
Type: in vivo
CONDITION SUMMARY: rat, plasma, iv, 5 mg/kg, Mean ± SEM (n = 2), read-out: Plasma Vz

- COMPOUND STRUCTURE: "O=C(Nc1ccc2sc(-c3ccc(F)c(F)c3)nc2c1)N1CC[C@H](F)C1"
  Vd [L/kg]: 0.76

---

PROCEDURE SUMMARY: Distribution between mouse plasma and brain (brain penetration, ip)
Assay type: in vivo
CONDITION SUMMARY: mouse, brain and plasma, intraperitoneal, 5 mg/kg, Table 8; groups of 3 mice; read-out: Average brain/plasma ratio
// reported Kp at 1 h per item

- COMPOUND: "O=C(Nc1ccc2sc(-c3ccc(F)c(F)c3)nc2c1)N1CCC(F)CC1"
  Kp at 1 h: 1.01
- COMPOUND: "O=C(Nc1ccc2sc(-c3ccc(F)c(F)c3)nc2c1)N1CCCC1"
  Kp at 1 h: 1.81
- COMPOUND: "O=C(Nc1ccc2sc(-c3ccc(F)c(F)c3)nc2c1)N1CCCCC1"
  Kp at 1 h: 0.51
- COMPOUND: "CN(C)C1CCN(C(=O)Nc2ccc3sc(-c4ccc(F)c(F)c4)nc3c2)C1 (stereo not shown)"
  Kp at 1 h: 3.8
- COMPOUND: "O=C(Nc1ccc2sc(-c3ccc(F)c(F)c3)nc2c1)N1CCC(C(F)(F)F)C1 (stereo not shown)"
  Kp at 1 h: 0.477
- COMPOUND: "O=C(Nc1ccc2sc(-c3ccc(F)c(F)c3)nc2c1)N1CCC(F)(F)C1"
  Kp at 1 h: 7.92
- COMPOUND: "O=C(Nc1ccc2sc(-c3ccc(F)c(F)c3)nc2c1)N1C[C@@H](F)[C@H](F)C1"
  Kp at 1 h: 7.71

---

PROCEDURE SUMMARY: Rat pharmacokinetics, intravenous administration
Assay type: in vivo
CONDITION SUMMARY: rat, plasma, iv, 5 mg/kg, Mean ± SEM (n = 2), read-out: Apparent T1/2 (min) for terminal phase
Description: The pharmacokinetics of compound 1 was tested in rats after intravenous and oral administration. Two rats were administered 5 mg/kg compound 1 intravenously in a vehicle consisting of 7% Tween 80, 3% EtOH, 5% DMSO in saline. Two rats were administered 20 mg/kg compound 1 orally in a vehicle consisting of 5% DMSO, 0.5% Tween 80, 1% methylcellulose in water. The results are shown in Table 4 and FIGS. 3A-3B and 4A-4B.

- COMPOUND STRUCTURE: "O=C(Nc1ccc2sc(-c3ccc(F)c(F)c3)nc2c1)N1CC[C@H](F)C1"
  half-life / min: 96.7

---

PROCEDURE SUMMARY: Metabolic stability in human liver microsomes
Assay type: in vitro ADME
CONDITION SUMMARY: Table 12; after 60 min (where t1/2 > 60 min)
READOUT LABEL: Human microsomes, percentage of compound remaining

- COMPOUND: "O=C(Nc1ccc2sc(-c3ccccc3)nc2c1)c1ccccc1"
  EXPERIMENTAL VALUE: "53%"
- COMPOUND: "O=C(Nc1ccc2sc(-c3ccc(F)c(F)c3)nc2c1)N1C[C@@H](F)[C@H](F)C1"
  EXPERIMENTAL VALUE: "96%"
- COMPOUND: "O=C(Nc1ccc2sc(-c3ccccc3)nc2c1)N1CCCCC1"
  EXPERIMENTAL VALUE: "62%"
- COMPOUND: "O=C(Nc1ccc2sc(-c3ccc(F)c(F)c3)nc2c1)N1CCC(F)C1 (racemic)"
  EXPERIMENTAL VALUE: "99%"
- COMPOUND: "O=C(Nc1ccc2oc(-c3ccccc3)nc2c1)N1CCCCC1"
  EXPERIMENTAL VALUE: "77%"
- COMPOUND: "O=C(Nc1ccc2sc(-c3ccc(F)c(F)c3)nc2c1)N1CCCC1"
  EXPERIMENTAL VALUE: "66%"
- COMPOUND: "O=C(Nc1ccc2sc(-c3ccc(F)c(F)c3)nc2c1)N1CC[C@H](F)C1"
  EXPERIMENTAL VALUE: "53%"

---

Tested on: human hepatocytes HepG2
PROCEDURE SUMMARY: Cytotoxicity against HepG2 cells
CONDITION SUMMARY: read-out: HepG2 EC90; concentration required to inhibit growth by 90%; human hepatocytes

- COMPOUND: "O=C(Nc1ccc2sc(-c3ccc(F)cc3)nc2c1)N1CCCCC1"
  EC90: "> 50 µM"
- COMPOUND: "O=C(Nc1ccc2sc(-c3ccc(F)c(F)c3)nc2c1)N1CCCC1"
  EC90: "> 50 µM"
- COMPOUND: "O=C(Nc1ccc2sc(-c3ccccc3F)nc2c1)N1CCCCC1"
  EC90: "> 50 µM"
- COMPOUND: "O=C(Nc1ccc2sc(-c3cccc(F)c3)nc2c1)N1CCCCC1"
  EC90: "> 50 µM"
- COMPOUND: "O=C(Nc1ccc2sc(-c3ccc(F)c(F)c3)nc2c1)N1CCC(F)(F)C1"
  EC90: "> 50 µM"
- COMPOUND: "O=C(Nc1ccc2sc(-c3ccccc3)nc2c1)c1cccs1"
  EC90: "> 50 µM"
- COMPOUND: "O=C(Nc1ccc2sc(-c3ccc(F)c(F)c3)nc2c1)N1CCC(F)CC1"
  EC90: "> 50 µM"
- COMPOUND: "O=C(Nc1ccc2sc(-c3ccc(F)c(F)c3)nc2c1)N1CC[C@@H](F)C1"
  EC90: "> 50 µM"
- COMPOUND: "O=C(Nc1ccc2sc(-c3cccc(F)c3)nc2c1)N1CCCC1"
  EC90: "> 50 µM"
- COMPOUND: "O=C(Nc1ccc2sc(-c3ccccc3F)nc2c1)N1CCCC1"
  EC90: "> 50 µM"
- COMPOUND: "O=C(Nc1ccc2sc(-c3ccccc3)nc2c1)N1CCCC1"
  EC90: "> 50 µM"
- COMPOUND: "O=C(Nc1ccc2sc(-c3ccc(F)cc3)nc2c1)N1CCCC1"
  EC90: "> 50 µM"
- COMPOUND: "O=C(Nc1ccc2sc(-c3cccc(F)c3F)nc2c1)N1CCCC1"
  EC90: "> 50 µM"
- COMPOUND: "O=C(Nc1ccc2sc(-c3ccccc3)nc2c1)N1CCCCC1"
  EC90: "> 50 µM"
- COMPOUND: "N=C(N)c1ccc(OCCCCCOc2ccc(C(=N)N)cc2)cc1 [penth, Pentamidine, reference compound]"
  EC90: "> 100 µM"
- COMPOUND: "O=C(Nc1ccc2sc(-c3ccc(F)c(F)c3)nc2c1)N1CC[C@H](F)C1"
  EC90: "> 50 µM"
- COMPOUND: "O=C(Nc1ccc2sc(-c3ccc(F)c(F)c3)nc2c1)N1C[C@@H](F)[C@H](F)C1"
  EC90: "> 50 µM"
- COMPOUND: "O=C(Nc1ccc2sc(-c3ccc(F)c(F)c3)nc2c1)N1CCCCC1"
  EC90: "> 50 µM"

---

PROCEDURE SUMMARY: Distribution between mouse plasma and brain (brain penetration, ip)
Format: in vivo
CONDITION SUMMARY: Table 14; mice, single ip dose 5 mg/kg, one hour post-dose; ± SEM of 3 mice (compound 3: 6 mice)
Protocol: For distribution of compounds between mouse plasma and brain, mice (in groups of 3) were injected with test compounds (5 mg/kg ip) and sacrificed at the indicated times for collection of plasma and brain. Compound was dissolved in 0.4 mL of dosing solution (7% Tween 80, 3% ethanol, 5% DMSO, 0.9% saline) for ip injections. […] Compound recovery was determined by liquid chromatography/tandem mass spectrometry analysis relative to a standard compound amount. […]
Marks after values point to notes of the source that are not given here.
READOUT LABEL: [compound]Plasma

- COMPOUND: "O=C(Nc1ccc2sc(-c3ccc(F)c(F)c3)nc2c1)N1CCC(F)(F)C1"
  EXPERIMENTAL VALUE: "2.81 ± 0.452 µM"
- COMPOUND: "O=C(Nc1ccc2oc(-c3ccccc3)nc2c1)N1CCCC1"
  EXPERIMENTAL VALUE: "0.270 ± 0.036 µM"
- COMPOUND: "O=C(Nc1ccc2sc(-c3ccc(F)c(F)c3)nc2c1)N1CCC(F)C1 (racemic)"
  EXPERIMENTAL VALUE: "3.26 ± 0.630^b μM"
- COMPOUND: "O=C(Nc1ccc2sc(-c3ccccc3)nc2c1)N1CCCC1"
  EXPERIMENTAL VALUE: "3.403 ± 0.328 µM"
- COMPOUND: "O=C(Nc1ccc2sc(-c3cccc(F)c3)nc2c1)N1CCCC1"
  EXPERIMENTAL VALUE: "2.22 ± 0.461 µM"
- COMPOUND: "O=C(Nc1ccc2sc(-c3ccc(F)c(F)c3)nc2c1)N1C[C@@H](F)[C@H](F)C1"
  EXPERIMENTAL VALUE: "2.19 ± 0.424 µM"
- COMPOUND: "O=C(Nc1ccc2sc(-c3ccc(F)c(F)c3)nc2c1)N1CCC(F)CC1"
  EXPERIMENTAL VALUE: "2.51 ± 0.203 µM"
- COMPOUND: "O=C(Nc1ccc2sc(-c3ccc(F)c(F)c3)nc2c1)N1CC[C@H](F)C1"
  EXPERIMENTAL VALUE: "2.27 ± 0.888 µM"
